Test system: HTT mRNA
test summary: Splicing RT-qPCR assay (THP), Table 2A
Format: cell-based
test parameters: Table 2A (THP), CJ mRNA decrease, read-out: HTT CJ (decrease in canonical junction mRNA, IC50)
pIC50: −log10 of the molar value.
endpoint name: pIC50

// solved cases for pIC50 follow
Prompt: Can you look up the measured pIC50 of "COc1cc2nn(C)cc2cc1NC(=O)c1c(F)cc(N2[C@@H]3CC[C@H]2C[C@H](NC2CC2)C3)c2cn(C)nc12" for me?
Completion: 5.00 to 6.00

Prompt: Can you look up the measured pIC50 of "Cc1cn2cc(NC(=O)c3ccc(N4CCC(NC5CC5)CC4)c4cc(C)nn34)cc(F)c2n1" for me?
Completion: 6.00 to 7.00

Prompt: Can you look up the measured pIC50 of "COc1c(NC(=O)c2c(F)cc(N3CCC(NC4CC4)CC3)c3cn(C)nc23)cc2cn(C)nc2c1F" for me?
Completion: 6.00 to 7.00

Prompt: Can you look up the measured pIC50 of "CCNC1CCN(c2cc(F)c(C(=O)Nc3cn4cc(CO)nc(C)c4n3)c3nn(C)cc23)CC1" for me?
Completion: < 5.00

Prompt: Can you look up the measured pIC50 of "COc1cc2nn(C)cc2cc1NC(=O)c1ccc(N2CC[C@@H]3CNCC[C@@H]32)c2cn(C)nc12" for me?
Completion: < 5.00

Others:
Prompt: Can you look up the measured pIC50 of CCNC1CCN(c2ccc(C(=O)Nc3cn4cc(CO)nc(C)c4n3)c3nn(C)cc23)CC1 [Compound 337, 2,2,2-trifluoroacetate] for me?
Completion: < 5.00

Prompt: Can you look up the measured pIC50 of "CCNC1CCN(c2ccc(C(=O)Nc3cc(F)c4nc(C)cn4c3)c3nnn(C)c23)CC1" for me?
Completion: < 5.00

Prompt: Can you look up the measured pIC50 of "Cn1cc2c(N3CCC(NC4CC4)CC3)cc(F)c(C(=O)Nc3ccnnc3O)c2n1" for me?
Completion: < 5.00

====

The following molecules are listed with their measured IC50 values.
Tested on: HTT mRNA
test summary: Splicing RT-qPCR assay (THP), Table 2A
Type: cell-based
test parameters: Table 2A (THP), CJ mRNA decrease, read-out: HTT CJ (decrease in canonical junction mRNA, IC50)

Prompt: Can you look up the measured IC50 of "CCNC1CCN(c2cc(F)c(C(=O)Nc3cc4c(C)nc(C)cn4c3)c3nn(C)cc23)CC1" for me?
Completion: > 10 µM

Prompt: Can you look up the measured IC50 of "CCNC1CCN(c2ccc(C(=O)Nc3cn4cc(C)nc(C5CC5)c4n3)c3nn(C)cc23)CC1" for me?
Completion: 1 to 10 µM

Prompt: Can you look up the measured IC50 of "CCNC1CCN(c2ccc(C(=O)Nc3nc4c(C)nc(C)cc4n3C)c3nn(C)cc23)CC1" for me?
Completion: 1 to 10 µM

Prompt: Can you look up the measured IC50 of CCNC1CCN(c2cc(F)c(C(=O)Nc3cn4cc(C5CC5)nc(C)c4n3)c3nn(C)cc23)CC1 [Compound 346, bis(2,2,2-trifluoroacetate)] for me?
Completion: > 10 µM

Prompt: Can you look up the measured IC50 of "Cc1cc2oc(NC(=O)c3c(F)cc(N4CCC(NC5CC5)CC4)c4cn(C)nc34)cc2c(C)n1" for me?
Completion: > 10 µM

Others:
Prompt: Can you look up the measured IC50 of "COc1cc2nn(C)cc2cc1NC(=O)c1c(NCCO)cc(N2CCC(NC3CC3)CC2)c2cn(C)nc12" for me?
Completion: 1 to 10 µM

Prompt: Can you look up the measured IC50 of COc1cc2nn(C)cc2cc1NC(=O)c1ccc(N2CCNC(C)CC2)c2cn(C)nc12 (stereo not shown) for me?
Completion: > 10 µM
